experiment: MDA-MB-436 breast carcinoma cell growth inhibition, synergistic combos for chromothripsis tumors, BGB or cisplatin combos (AID 1671458); settings: MDA-MB-436 breast carcinoma growth inhibition, drug combinations; at 0.5 µM; stronger effect = higher value;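 further: cells exposed for 96 hours; 0% = vehicle DMSO and 100% = killing by high DMSO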
Could you please report measured inhibition for the items listed next?
Express it in %; write the number only.

INPUT: Recorded inhibition for C[C@@H](CN1CC(=O)NC(=O)C1)N1CC(=O)NC(=O)C1 , please?
OUTPUT: -7.66

INPUT: So what does the record say about inhibition for Nc1ncn([C@H]2C[C@H](O)[C@@H](CO)O2)c(=O)n1 ?
OUTPUT: 17.4

INPUT: inhibition for CC1(C(=O)O)CCC2(C)CCC3(C)C(=CC(=O)C4C5(C)CCC(OC(=O)CCC(=O)O)C(C)(C)C5CCC43C)C2C1 (centres undefined) ?
OUTPUT: -23.5

INPUT: // lookup inhibition for N=C(N=C(N)N)N1CCOCC1
OUTPUT: -3.31

INPUT: Sample CNC1CCCN(c2c(F)cc3c(=O)c(C(=O)O)cn(C4CC4)c3c2OC)C1 (centres undefined) — what was its inhibition?
OUTPUT: -22.5

INPUT: Name the recorded inhibition for CN1CCN(c2c(F)cc3c(=O)c(C(=O)O)cn(CCF)c3c2F)CC1 .
OUTPUT: 2.48

INPUT: Need inhibition, item O=C(CCCCCCC(=O)Nc1ccccc1)NO
OUTPUT: -18.9

INPUT: Dear colleague, I am looking for the recorded inhibition of the following compound: CN(N=O)C(=O)NC1C(O)OC(CO)C(O)C1O (centres undefined)
OUTPUT: -6.07

INPUT: If you can, please state the reported inhibition value of O=c1cc[nH]c(=O)[nH]1 .
OUTPUT: -27.5

INPUT: Which measured inhibition value corresponds to CCn1nc(C(=O)O)c(=O)c2cc3c(cc21)OCO3 ?
OUTPUT: -10.8

INPUT: // lookup inhibition for O=c1c(O)c(-c2ccc(O)c(O)c2)oc2cc(O)ccc12
OUTPUT: -7.38

INPUT: // lookup inhibition for CN1CCN(c2c(F)cc3c(=O)c(C(=O)O)cn4c3c2OCN4C)CC1
OUTPUT: -16.5

INPUT: Any idea what inhibition was measured for CCOC(=O)Nc1ccc(NCc2ccc(F)cc2)nc1N ?
OUTPUT: -12.4

INPUT: For the compound N=c1ccn2c(n1)O[C@H]1[C@H](O)[C@@H](CO)O[C@H]12 , what inhibition is on record?
OUTPUT: 14

---

assay: glucagon-like peptide 1 release enhancers, primary assay, NCI-H716 cell line, NPC library (AID 1117341); details: NCI-H716 cells, at 10 µM, stronger effect = higher value; further: reference of the scale not given here
measured_parameter: GLP1 secretion stimulation (%)
State the answer as a number, implicitly in %.

INPUT: Any idea what its GLP1 secretion stimulation is? The compound is NCCNC(=O)c1ccc(Cl)cn1
OUTPUT: -1.7

INPUT: Entry under review: N[C@@H](COP(=O)(O)O)C(=O)O . Reported GLP1 secretion stimulation?
OUTPUT: -1

INPUT: Consider the compound shown here: O=c1[nH]c2ccccc2n1CCCN1CCN(C(c2ccccc2)c2ccccc2)CC1 What is its recorded GLP1 secretion stimulation?
OUTPUT: 1.4

INPUT: GLP1 secretion stimulation for COc1ccc(CCN(C)CCCN2CCc3cc(OC)c(OC)cc3CC2=O)cc1OC ?
OUTPUT: 7.6

INPUT: I'd like to know its GLP1 secretion stimulation. The compound in question is Cc1ncc([N+](=O)[O-])n1C
OUTPUT: -0.5

INPUT: May I ask what GLP1 secretion stimulation has been recorded for COCC(=O)Nc1c(I)c(C(=O)NCC(O)CO)c(I)c(C(=O)N(C)CC(O)CO)c1I (configuration not stated) ?
OUTPUT: -1.2

INPUT: For the compound shown here, CC(=O)N[C@@H](CC(C)C)C(=O)O , give the reported GLP1 secretion stimulation.
OUTPUT: -1.9

INPUT: Fill in: GLP1 secretion stimulation of CCC1C(=O)OCC1Cc1cncn1C (configuration not stated) is ___
OUTPUT: 1.2

INPUT: Which value of GLP1 secretion stimulation has been reported for CCCCOC(=O)c1ccc(O)cc1 in the records?
OUTPUT: -6.3

INPUT: Would you kindly share the measured GLP1 secretion stimulation for CCOC(=O)Nc1ccc2c(c1)N(C(=O)CCN1CCOCC1)c1ccccc1S2 ?
OUTPUT: -2.4

INPUT: I would be grateful if you could share the reported GLP1 secretion stimulation for CN(C)C(=N)N=C(N)N .
OUTPUT: 3.1

INPUT: # query: GLP1 secretion stimulation of entry COc1ccc2c(c1OC)C(=O)O[C@@H]2[C@H]1c2c(cc3c(c2OC)OCO3)CCN1C
OUTPUT: -1.8

Data provenance: PubChem BioAssay
